Reference source for all entries: PubChem BioAssay (NCI)

System: M14 melanoma
test description: NCI-60 one-dose screen, 48 h (100 = growth as untreated, 0 = no growth, -100 = all killed)
study conditions: 10 µM unless noted
The panel holds about 83,000 compounds, 20% with a hit somewhere; the sample as a whole holds those more often.
# reported growth; entries follow
Write it as a number; the unit % goes unstated.

// known answers, use as guide
- compound: "Cc1cc(N(CCCl)CCCl)ccc1C=Nc1ccc(-c2csc(Cc3ccccc3)n2)cc1"
  tested system: "M14 melanoma"
  growth [%]: 79.8
- compound: "C/C1=C/C(=O)O[C@@H]2C[C@@H](CC[C@H](C)/C=C\\C=C\\CC1)O[C@@](O)([C@@H]1CSC(=O)N1CO)C2"
  tested system: "M14 melanoma"
  growth [%]: 34.5
- compound: "CCCCOc1ccc(C(N)Cc2ccccc2)cc1 (centres undefined)"
  tested system: "M14 melanoma"
  growth [%]: 87.1

Input line: Please indicate growth recorded for `CC[C@H](C)[C@H](NC(=O)[C@H]1CCCCN1C)C(=O)N(C)[C@H](C[C@@H](OC(C)=O)c1cccc(C(=O)N[C@@H](Cc2ccccc2)C[C@H](C)C(=O)O)n1)C(C)C`
Output line: 10

====

Tested on: SK-MEL-5 melanoma
test description: NCI-60 one-dose screen, 48 h (100 = growth as untreated, 0 = no growth, -100 = all killed)
study conditions: 10 µM unless noted
Experimental: Growth inhibition of the SK-MEL-5 human tumor cell line is measured as a screen for anti-cancer activity. Cells are grown in 96 well plates and exposed to the test compound for 48 hours. Compounds are tested at a single concentration, which is 10^-5 M for most compounds. The reported endpoint is percent growth (GI% or GIPRCNT), where numbers from 0 - 100% represent growth inhibition, and numbers from -100% - 0 represent cell death. For example, a value of 40 represents 60% growth inhibition. […]
About 83,000 compounds went through this panel and 20% of them were active in at least one assay; those are over-represented in the sample as a whole.
Mark criterion met only when growth stays strictly below 90%. Values equal to the cut-off are criterion not met.

See these solved cases before continuing.
- compound: "O=[N+]([O-])c1cc(I)cc([N+](=O)[O-])c1"
  tested system: "SK-MEL-5 melanoma"
  assigned label: "criterion not met"
- compound: "CC(=O)OC1CCC2(C)C(CCC3C2CC(=O)C2(C)C3CC(Sc3ccc(N(CCCl)CCCl)cc3)C2C(C)=O)C1 (centres undefined)"
  tested system: "SK-MEL-5 melanoma"
  assigned label: "criterion not met"
- compound: "c1cc2c(c3c1CCNC3)OCO2"
  tested system: "SK-MEL-5 melanoma"
  assigned label: "criterion not met"
- compound: "C[S+]1C=Cc2ccccc2C1c1ccc(Cl)cc1 (centres undefined)"
  tested system: "SK-MEL-5 melanoma"
  assigned label: "criterion not met"
- compound: "CCC(C)(C)[C@H](NC(=O)[C@H]1CCCCN1C)C(=O)N(C)[C@H](C[C@@H](OC(C)=O)c1nc(C(=O)N[C@@H](Cc2ccccc2)C[C@H](C)C(=O)O)cs1)C(C)C"
  tested system: "SK-MEL-5 melanoma"
  assigned label: "criterion met"
- compound: "Cc1ccc(C(=O)NCCCOc2ccc(N3C(N)=NC(N)=NC3(C)C)cc2Cl)cc1S(=O)(=O)F"
  tested system: "SK-MEL-5 melanoma"
  assigned label: "criterion met"
- compound: "CN(CCCCN(C)CCOS(C)(=O)=O)CCOS(C)(=O)=O"
  tested system: "SK-MEL-5 melanoma"
  assigned label: "criterion met"

Consider now this further compound.
Input line: # check: growth < 90% for `O=C(Nc1ccc(Cl)cc1)Nc1nccs1`
Output line: criterion met
